Recorded measurements of kon, one per entry
TEST TARGET: T1, hIL-18Rα ECD-Fc fusion protein (human, UniProt Q13478 22-329)
T1 construct: extracellular domain; captured on Protein A sensor
T1 sequence (looked up): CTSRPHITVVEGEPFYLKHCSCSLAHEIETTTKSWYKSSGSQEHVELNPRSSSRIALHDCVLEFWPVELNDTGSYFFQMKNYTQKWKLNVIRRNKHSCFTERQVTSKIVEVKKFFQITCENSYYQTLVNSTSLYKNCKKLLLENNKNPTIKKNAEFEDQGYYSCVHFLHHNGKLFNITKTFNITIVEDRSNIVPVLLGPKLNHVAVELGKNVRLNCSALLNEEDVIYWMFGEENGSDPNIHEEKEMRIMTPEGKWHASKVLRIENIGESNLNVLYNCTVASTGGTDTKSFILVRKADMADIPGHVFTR
PROTOCOL TEXT: BLI (Octet RED96), hIL-18Rα ECD-Fc on Protein A sensor
The figure you give is taken to be in M⁻¹ s⁻¹; do not add the unit.

Worked cases, answers included:
IL-18 variant polypeptide M22 (ligand) YFPKLRSKLSVIRNLNDQVLFIDQGNRPLFEDMTDSDCRDNAPRTIFIISMYKYSRGRGMAVTISVKCEKISTLSCENKIISFKEMNPPDKIKDTKSDIIFFQSSVPGHDNKMQFESSSYEGYFLACEKERDLFKLILKKEDELGDRSIMFTVQNED: 9740
IL-18 variant polypeptide LM4 (ligand, soluble, E. coli-made) YFPKLKSKLSVIRNLNDQVLFIDQGNRPLFEDMTDSDCRDNAPRTIFIISMYKHSYSRGMAVTISVKCEKISTLSCENKIISFKEMNPPDNIKDTKSDIIFFQRSVPGHDNKMQFESSSYEGYFLACEKERDLFKLILKKEDELGDRSIMFTVQNED: 4.06e+06

// moving on: another record for kon
Input IL-18 variant polypeptide M1 (ligand) YFPKLKSKLSVIRNLNDQVLFIDQGNRPLFEDMTDSDCRDNAPRTIFIISMYKHSDRRGMAVTISVKCEKISTLSCENKIISFKEMNPPDVIKDTKSDIIFFQVSVPGHDNKMQFESSSYEGYFLACEKERDLFKLILKKEDELGDRSIMFTVQNED . Output kon: 54400
